target: UniProt Q8NET8; assay: Whole-cell patch clamp, hTRPV3 Phase 1 / Phase 2 currents; assay type: cell-based; conditions: Phase 1 current, inward, whole-cell patch clamp; read-out: hTRPV3 Patch P1 Inwd
Counter-ions that a name gives are not always drawn.
Observable: IC50

# count of solved cases: 7
CCCc1ccccc1Oc1ccc(N2CC[C@H](Oc3ncccc3Cl)C2)c(CO)c1 ... < 10 nM
CCc1ccccc1C(O)c1ccc(N2CC[C@H](Oc3ncccc3Cl)C2)c(CO)c1 (some centres unmarked) [Compound 1-257] ... 100 to 1000 nM
Cc1ccccc1C(=O)c1ccc(N2CC[C@H](Oc3ncccc3Cl)C2)c(CO)c1 ... 100 to 1000 nM
CC(=O)c1ccccc1-c1ccc(N2CC[C@H](Oc3ccc(C(F)(F)F)cn3)C2)c(CO)c1 ... 100 to 1000 nM
OCCCc1cc(-c2ccccc2Cl)ccc1N1CC[C@H](Oc2ccc(C(F)(F)F)cn2)C1 ... 100 to 1000 nM
CCc1ccccc1-c1ccc(N2CC[C@H](Oc3ccc(C)cn3)C2)c(CCO)n1 ... 100 to 1000 nM
O=C(O)c1ccccc1N1CC[C@@H](Oc2ccc(C(F)(F)F)cn2)C1 ... > 1000 nM

Turning now to a further record.
Form: compound = CC(C)c1ccccc1Oc1ccc(C2CCN(Cc3ncccc3Cl)C2)c(CO)c1 (centres unmarked) [Compound 2-92, hydrochloride] ; IC50 = 100 to 1000 nM

###

Recorded measurements of IC50, one per entry
target: UniProt Q8NET8; assay: Whole-cell patch clamp, hTRPV3 Phase 1 / Phase 2 currents; type: cell-based; conditions: hTRPV3 Patch P2 Inwd (nM)
Counter-ions that a name gives are not always drawn.

# count of solved cases: 5
NC(=O)c1cc(C(F)(F)F)ccc1N1CC[C@H](Oc2ccc(C(F)(F)F)cn2)C1 ... 100 to 1000 nM
NC(=O)c1cc(C2=NCCN2)ccc1N1CC[C@@H](Oc2ccc(C(F)(F)F)cn2)C1 ... > 1000 nM
Cl.NC(=O)c1cc(-c2cccnc2)ccc1N1CC[C@@H](Oc2ncccc2Cl)C1 [Compound 1-74, hydrochloride] ... > 1000 nM
OCc1nc(Oc2ccccc2)ccc1N1CC[C@H](Oc2ccc(C(F)(F)F)cn2)C1 ... > 1000 nM
NC(=O)c1cc(C(=O)c2ccccc2)ccc1N1CC[C@H](Oc2ncccc2Cl)C1 ... > 1000 nM

Turning now to a further record.
Form: molecule = NCc1cc(-c2ccccc2)ccc1N1CC[C@@H](Oc2ccc(C(F)(F)F)cn2)C1 [Compound 1-109, hydrochloride] ; IC50 = > 1000 nM

###

target: hTRPV3 (Homo sapiens (Human), UniProt Q8NET8); test: Whole-cell patch clamp, hTRPV3 Phase 1 / Phase 2 currents; format: cell-based; conditions: Phase 2 current; read-out: hTRPV3 (nM) (Phase 2)
Sequence (Q8NET8 whole entry): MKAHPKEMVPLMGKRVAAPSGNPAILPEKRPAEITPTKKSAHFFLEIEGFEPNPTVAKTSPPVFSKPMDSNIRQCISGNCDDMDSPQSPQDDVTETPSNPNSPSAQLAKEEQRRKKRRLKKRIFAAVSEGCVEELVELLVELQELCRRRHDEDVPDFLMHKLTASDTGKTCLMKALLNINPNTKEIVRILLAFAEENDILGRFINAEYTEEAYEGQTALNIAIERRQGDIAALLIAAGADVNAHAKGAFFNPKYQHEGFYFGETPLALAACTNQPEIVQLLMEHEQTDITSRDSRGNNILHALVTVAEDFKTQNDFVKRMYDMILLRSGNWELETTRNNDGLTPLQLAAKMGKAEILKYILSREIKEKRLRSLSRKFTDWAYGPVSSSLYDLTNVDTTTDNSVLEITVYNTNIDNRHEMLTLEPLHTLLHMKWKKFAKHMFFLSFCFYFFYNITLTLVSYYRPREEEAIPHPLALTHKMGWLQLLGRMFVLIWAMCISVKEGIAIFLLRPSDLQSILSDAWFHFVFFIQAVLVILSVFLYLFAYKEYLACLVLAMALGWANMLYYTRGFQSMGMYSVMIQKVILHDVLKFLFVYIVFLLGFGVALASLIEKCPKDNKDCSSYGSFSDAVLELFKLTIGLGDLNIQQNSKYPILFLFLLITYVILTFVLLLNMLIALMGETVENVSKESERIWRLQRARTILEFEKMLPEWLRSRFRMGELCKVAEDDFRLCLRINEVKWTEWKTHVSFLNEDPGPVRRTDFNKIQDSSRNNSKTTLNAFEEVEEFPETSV
Observable: IC50 (nM)
Value expressed in nM; do not type the unit.

N#Cc1cc(C(F)(F)F)ccc1N1CC[C@H](Oc2ccc(C(F)(F)F)cn2)C1 ... 219
NC(=O)c1cc(-c2ccccc2)ccc1N1CC[C@H](Oc2ccc(C(F)(F)F)cn2)C1 ... 273
COCc1ccccc1-c1ccc(N2CC[C@H](Oc3ccc(C(F)(F)F)cn3)C2)c(CO)c1 ... 106
OCc1cc(-c2ccccc2)ccc1N1CC[C@H](Oc2ccc(C(F)(F)F)nn2)C1 ... 1370
CC(O)c1ccccc1-c1ccc(N2CC[C@H](Oc3ccc(C(F)(F)F)cn3)C2)c(CO)c1 (stereo partly shown) ... 636

Form: compound = OCc1cc(-c2ccccc2)ccc1N1CC[C@H](Oc2ncccc2Cl)C1 ; IC50 = 369

Form: compound = OCCOc1cc(-c2ccccc2)ccc1N1CC[C@@H](Oc2ccc(C(F)(F)F)cn2)C1 ; IC50 = 486

Form: compound = OCc1cc(-c2ccccc2)ccc1N1CC[C@@H](Oc2ccc(C(F)(F)F)cn2)C1 ; IC50 = 685

Form: compound = CCc1ccccc1C(O)c1ccc(N2CC[C@H](Oc3ncccc3Cl)C2)c(CO)c1 (stereo partly shown) ; IC50 = 1110

###

molecular target: hTRPV3 (Homo sapiens (Human)); experiment: Whole-cell patch clamp, hTRPV3 Phase 1 / Phase 2 currents; format: cell-based; settings: Phase 2 current; read-out: hTRPV3 (nM) (Phase 2)
Observable: IC50 (nM)
Value expressed in nM; do not type the unit.

Form: molecule = COC(C)c1ccccc1Oc1ccc(N2CC[C@H](Oc3ccc(F)cn3)C2)c(CCO)c1 (stereo partly shown) [Compound 1-347] ; IC50 = 198

Form: molecule = CC(O)c1cc(F)ccc1Oc1ccc(N2CC[C@H](Oc3ccccn3)C2)c(CO)c1 (stereo partly shown) [Compound 1-326] ; IC50 = 575

###

biological target: hTRPV3 (Homo sapiens (Human)); test: Whole-cell patch clamp, hTRPV3 Phase 1 / Phase 2 currents; format: cell-based; details: Phase 2 current; read-out: hTRPV3 (nM) (Phase 2)
Recorded measurements of IC50, one per entry
Value expressed in nM; do not type the unit.

# count of solved cases: 5
NC(=O)c1cc(Cl)ccc1N1CC[C@H](Oc2ccc(C(F)(F)F)cn2)C1 ... 546
OCc1cc(-c2ccccc2F)ccc1N1CC[C@H](Oc2ccc(C(F)(F)F)cn2)C1 ... 74.7
NC(=O)c1cc(-c2ccccc2)ccc1N1CC[C@H](Nc2ncccc2Cl)C1 [Compound 1-373] ... 669
NC(=O)c1cc(Cc2ccccc2)ccc1N1CC[C@H](Oc2ncccc2Cl)C1 ... 749
O=C(CO)c1cc(-c2ccccc2)ccc1N1CC[C@H](Oc2ccc(C(F)(F)F)cn2)C1 ... 146

Turning now to a further record.
Form: compound = NC(=O)c1cc(Oc2ccccc2Cl)ccc1N1CC[C@H](Oc2ncccc2Cl)C1 ; IC50 = 834

###

molecular target: rat (r) TRPV3 (Rattus norvegicus, UniProt E9PU00); assay: Whole-cell patch clamp, rTRPV3 Phase 1 / Phase 2 currents; assay type: cell-based; details: Phase 1 current; read-out: rTRPV3 (nM) (Phase 1)
Sequence (E9PU00 1-791): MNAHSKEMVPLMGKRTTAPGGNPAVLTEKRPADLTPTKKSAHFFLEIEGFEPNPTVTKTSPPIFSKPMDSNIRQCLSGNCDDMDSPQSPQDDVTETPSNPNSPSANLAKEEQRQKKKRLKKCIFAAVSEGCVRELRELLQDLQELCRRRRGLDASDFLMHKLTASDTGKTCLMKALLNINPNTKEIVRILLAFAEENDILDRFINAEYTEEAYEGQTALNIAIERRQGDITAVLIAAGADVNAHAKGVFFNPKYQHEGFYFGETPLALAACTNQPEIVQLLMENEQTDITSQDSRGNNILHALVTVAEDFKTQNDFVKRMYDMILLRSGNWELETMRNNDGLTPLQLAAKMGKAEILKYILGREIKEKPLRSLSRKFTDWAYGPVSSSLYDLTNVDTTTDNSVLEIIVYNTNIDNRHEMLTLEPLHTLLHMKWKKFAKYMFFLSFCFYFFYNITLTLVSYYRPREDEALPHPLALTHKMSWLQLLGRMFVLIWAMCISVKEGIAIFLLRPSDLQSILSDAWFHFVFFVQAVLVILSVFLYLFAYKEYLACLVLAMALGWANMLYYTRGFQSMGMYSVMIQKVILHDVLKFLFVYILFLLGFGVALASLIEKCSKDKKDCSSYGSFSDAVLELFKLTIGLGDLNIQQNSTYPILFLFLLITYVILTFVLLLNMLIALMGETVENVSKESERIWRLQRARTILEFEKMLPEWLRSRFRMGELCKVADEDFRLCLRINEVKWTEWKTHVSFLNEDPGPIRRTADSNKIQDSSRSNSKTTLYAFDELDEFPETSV
Recorded measurements of IC50, one per entry
Value expressed in nM; do not type the unit.

Form: compound = OCc1cc([C@@H](O)c2ccccc2Cl)ccc1N1CC[C@H](Oc2ncccc2F)C1 [Compound 1-321] ; IC50 = 5.37

Form: compound = NC(=O)c1cc(-c2ccccc2)ccc1N1CC[C@@H](Oc2ccc(C(F)(F)F)cn2)C1 [Compound 1-33] ; IC50 = 283

Form: compound = NC(=O)c1cc(-c2ccc(F)cc2)ccc1N1CC[C@H](Oc2ccc(C(F)(F)F)cn2)C1 [Compound 1-65] ; IC50 = 1140

###

test: Metabolic Stability assay, rat liver microsomes; format: in vitro ADME; details: read-out: LM T1/2 (min) rat
Observable: log10(half-life at 1 μM) (log10 of the value in min)
On a log10 scale: recorded half-life at 1 μM, unit min.

# count of solved cases: 3
O=C(c1cnccn1)N1CCC(c2ccc(-c3ccccc3C3CC3)cc2CO)C1 (stereo not shown) [Compound 2-105] ... 1.11
CC(C)c1ccccc1Oc1ccc(C2CCN(C(=O)c3ccc(Cl)cn3)C2)c(C(N)=O)c1 (stereo not shown) [Compound 2-32] ... 0.84
CC(C)c1ccccc1Oc1ccc(C2CC(=O)N(Cc3ccccn3)C2)c(CO)c1 (stereo not shown) [Compound 2-93] ... 0.70

Form: molecule = CC(C)c1ccccc1Oc1ccc(C2CCN(C(=O)c3ncccc3Cl)C2)c(CO)c1 (stereo not shown) [Compound 2-12] ; log10(half-life at 1 μM) = 0.88

Form: molecule = CC(C)c1ccccc1-c1ccc(C2CCN(C(=O)c3ccc(F)cn3)C2)c(CO)c1 (stereo not shown) [Compound 2-29] ; log10(half-life at 1 μM) = 1.23

###

molecular target: hTRPV3 (Homo sapiens (Human), UniProt Q8NET8); assay: Whole-cell patch clamp, hTRPV3 Phase 1 / Phase 2 currents; type: cell-based; conditions: Phase 1 current
Observable: hTRPV3 (nM) (Phase 1)

CCc1c(Oc2ccc(F)c(CO)c2)ncnc1N1CC[C@H](Oc2ncccc2Cl)C1 [Compound 1-359] ... Agonist (Phase 1)
O=C(O)c1cc(-c2ccccc2)cnc1N1CC[C@@H](Oc2ccc(C(F)(F)F)cn2)C1 [Compound 1-91] ... Agonist (Phase 1)

###

biological target: hTRPV3 (Homo sapiens (Human)); test: Whole-cell patch clamp, hTRPV3 Phase 1 / Phase 2 currents; assay type: cell-based; settings: Phase 1 current, human TRPV3; read-out: hTRPV3 (nM) Phase 1
Observable: IC50

# count of solved cases: 2
O=C(c1ccc(C2CCN(C(=O)c3ncccc3Cl)C2)c(CO)c1)c1ccccc1Cl (stereo not drawn) [Compound 2-14] ... > 3200 nM
O=C(c1ncccc1Cl)N1CCC(c2ccc(C(O)c3ccc(F)cc3)cc2CO)C1 (stereo not drawn) [Compound 2-4] ... > 3200 nM

Turning now to a further record.
Form: compound = CCc1cncnc1Oc1ccc(C2CCN(C(=O)c3ncccc3Cl)C2)c(CO)c1 (stereo not drawn) [Compound 2-22] ; IC50 = > 3200 nM

Where do these numbers come from? They come from patent US12435061B2.
